target: UniProt P08684
Sequence (P08684 whole entry): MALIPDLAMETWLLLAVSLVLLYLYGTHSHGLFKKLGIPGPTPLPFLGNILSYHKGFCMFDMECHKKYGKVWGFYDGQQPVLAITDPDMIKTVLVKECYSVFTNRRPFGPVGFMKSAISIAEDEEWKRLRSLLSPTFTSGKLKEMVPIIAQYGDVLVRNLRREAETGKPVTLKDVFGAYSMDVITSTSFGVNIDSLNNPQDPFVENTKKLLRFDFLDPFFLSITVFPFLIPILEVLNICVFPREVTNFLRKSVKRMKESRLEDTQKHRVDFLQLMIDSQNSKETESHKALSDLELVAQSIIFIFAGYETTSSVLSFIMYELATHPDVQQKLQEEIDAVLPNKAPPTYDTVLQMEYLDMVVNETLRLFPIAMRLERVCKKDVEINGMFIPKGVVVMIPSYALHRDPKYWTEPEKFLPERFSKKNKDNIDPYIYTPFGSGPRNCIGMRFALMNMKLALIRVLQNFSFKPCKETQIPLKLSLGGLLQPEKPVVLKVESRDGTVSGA
// classify: if (AC50 < 30 µM) fulfilled else not fulfilled

- compound: "C1CC(COCC2CO2)CCC1COCC1CO1 (stereo not shown)"
  class label: "not fulfilled"
- compound: "O=C(O)C1(C(=O)Nc2ccc(Cl)cc2Cl)CC1 [Cyclanilide]"
  class label: "not fulfilled"
- compound: "CC(=O)O[C@H]1CC[C@@]2(C)C(=CC[C@@H]3[C@@H]2CC[C@]2(C)C(C(C)=O)=CC[C@@H]32)C1 [Dehydropregnenolone acetate]"
  class label: "fulfilled"
- compound: "BrCc1cccc(Oc2ccccc2)c1 [1-(Bromomethyl)-3-phenoxybenzene]"
  class label: "not fulfilled"
- compound: "CCCCC/C(=C\\c1ccccc1)CO [alpha-Amylcinnamyl alcohol]"
  class label: "fulfilled"
- compound: "CC(=O)OC(C(=O)c1ccccc1)c1ccccc1 (stereo not shown) [Benzoin acetate]"
  class label: "not fulfilled"
- compound: "O=C(O)c1cc2ccccc2nc1C(=O)O [2,3-Quinolinedicarboxylic acid]"
  class label: "fulfilled"
- compound: "CCOC(=O)C1=NOC(c2ccccc2)(c2ccccc2)C1 [Isoxadifen-ethyl]"
  class label: "not fulfilled"
- compound: "Cc1ccc(C(C)OC(=O)[C@]2(C)CC[C@H](C(=O)O)C2(C)C)cc1.OCCNCCO (stereo partly shown) [Tocanfil]"
  class label: "fulfilled"
- compound: "Cl.Nc1c2c(nc3c1CCC3)CCCC2.O [Ipidacrine hydrochloride hydrate]"
  class label: "fulfilled"
- compound: "CC(C)NC(=O)c1ccccc1N [2-Amino-N-(1-methylethyl)benzamide]"
  class label: "not fulfilled"
- compound: "C=C(C)C(=O)OCCCCCCCCCCOC(=O)C(=C)C [1,10-Decanediol dimethacrylate]"
  class label: "not fulfilled"
- compound: "CN1C(=O)N(c2ccccc2Br)Cc2cnc(Nc3ccc4c(c3)OCC(CO)O4)nc21 (stereo not shown) [PharmaGSID_48519]"
  class label: "fulfilled"
- compound: "CCOC(=O)CC(=O)Cc1cc(F)c(Cl)nc1Cl"
  class label: "not fulfilled"
- compound: "O=C(O)CC(C(=O)O)S(=O)(=O)O (stereo not shown) [Sulfosuccinic acid]"
  class label: "not fulfilled"
- compound: "O=C1NCN(c2ccccc2)C12CCN(CCCOc1ccc(F)cc1)CC2 [AMI-193]"
  class label: "fulfilled"
- compound: "Cc1ccc([N+](=O)[O-])c(N)c1 [5-Methyl-2-nitroaniline]"
  class label: "fulfilled"
- compound: "CCCCCCCCC(CCCCCC)C(=O)O (stereo not shown) [2-Hexyldecanoic acid]"
  class label: "not fulfilled"
- compound: "Brc1nc2ccccc2s1 [2-Bromobenzothiazole]"
  class label: "not fulfilled"
- compound: "OCC(c1ccc(Cl)cc1)c1ccc(Cl)cc1 [2,2-Bis(4-chlorophenyl)ethanol]"
  class label: "fulfilled"
- compound: "CN(C)C1CSSSC1.O=C(O)C(=O)O [Thiocyclam oxalate]"
  class label: "not fulfilled"
- compound: "c1ccc(CCCc2ccccn2)cc1 [2-(3-Phenylpropyl)pyridine]"
  class label: "fulfilled"
- compound: "CC(=O)c1cc(C(C)(C)C)cc2c1CCC2(C)C"
  class label: "fulfilled"
- compound: "O=C(OCCCCCOC(=O)c1ccccc1)c1ccccc1 [Pentane-1,5-diyl dibenzoate]"
  class label: "fulfilled"
- compound: "C[C@]12CC[C@H]3[C@@H](CCC4=CC(=O)CC[C@@]43C)[C@@H]1CC[C@@H]2C(=O)O [Etienic acid]"
  class label: "fulfilled"
- compound: "CO/C=C(/C(=O)OC)c1ccccc1COc1cccc(C(F)(F)F)n1 [Picoxystrobin]"
  class label: "fulfilled"
- compound: "O=S(=O)(O)c1cc(Cl)c(Cl)cc1Cl [2,4,5-Trichlorobenzenesulfonic acid]"
  class label: "not fulfilled"
- compound: "CCOC(=O)c1ccc(OC(=O)CCCCCN=C(N)N)cc1.CS(=O)(=O)O [Gabexate mesilate]"
  class label: "fulfilled"
- compound: "CCCCCCCCc1ccc(S(=O)(=O)[O-])cc1.[Na+] [Sodium 4-octylbenzenesulfonate]"
  class label: "not fulfilled"
- compound: "CCCCCCC(O)CCCCCCCCCCC(=O)OC (stereo not shown) [Methyl 12-hydroxyoctadecanoate]"
  class label: "fulfilled"
- compound: "c1ccc(SCCSc2ccccc2)cc1 [1,2-Bis(phenylthio)ethane]"
  class label: "fulfilled"
- compound: "CN1CCC(Nc2ncc3ncnc(Nc4ccc(F)c(Cl)c4)c3n2)CC1.Cl.Cl [Falnidamol dihydrochloride]"
  class label: "fulfilled"
- compound: "CCCCCCCCCCCCCCCCC(C(=O)O)C(O)(CC(=O)O)C(=O)O (stereo not shown) [Agaric acid]"
  class label: "not fulfilled"
- compound: "CCCCCCCCCCCCCC[P+](CCCC)(CCCC)CCCC.CCCCCCCCCCCCc1ccc(S(=O)(=O)[O-])cc1"
  class label: "fulfilled"
- compound: "O=C(Oc1ccccc1)c1cccc(C(=O)Oc2ccccc2)c1 [Diphenyl isophthalate]"
  class label: "fulfilled"
- compound: "O=C(C=Cc1ccccc1)OCCCc1ccccc1 [3-Phenylpropyl cinnamate]"
  class label: "fulfilled"

* * *

biological target: human CYP1A2 (Homo sapiens, UniProt P05177)
Sequence (P05177 whole entry): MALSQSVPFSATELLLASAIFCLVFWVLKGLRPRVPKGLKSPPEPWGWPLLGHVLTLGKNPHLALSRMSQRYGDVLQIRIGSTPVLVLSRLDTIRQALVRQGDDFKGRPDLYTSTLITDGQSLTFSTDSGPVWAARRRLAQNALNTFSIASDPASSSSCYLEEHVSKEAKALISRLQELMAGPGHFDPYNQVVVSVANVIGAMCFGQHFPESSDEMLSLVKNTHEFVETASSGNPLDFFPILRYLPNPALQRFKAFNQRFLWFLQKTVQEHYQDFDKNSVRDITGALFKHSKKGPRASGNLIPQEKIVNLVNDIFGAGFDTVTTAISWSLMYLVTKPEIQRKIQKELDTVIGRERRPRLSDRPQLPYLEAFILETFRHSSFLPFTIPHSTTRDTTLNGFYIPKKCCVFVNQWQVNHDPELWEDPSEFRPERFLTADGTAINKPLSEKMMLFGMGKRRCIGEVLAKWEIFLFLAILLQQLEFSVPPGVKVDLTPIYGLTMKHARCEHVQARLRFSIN
Structures can show the parent of a compound that is named as a salt.
reported metric: CYP1A2 AC50 (half-maximal activity concentration)

- compound: "C#C[C@]1(OC(C)=O)CC[C@H]2[C@@H]3CCC4=C[C@@H](OC(C)=O)CC[C@@H]4[C@H]3CC[C@@]21C [Ethynodiol diacetate]"
  recorded result: "Inactive"
- compound: "O=C(CCOCCOCCOCCOCCC(=O)Nc1c(I)cc(I)c(C(=O)O)c1I)Nc1c(I)cc(I)c(C(=O)O)c1I [Iodoxamic Acid]"
  recorded result: "Inactive"
- compound: "CN(CC1(C)CCCO1)S(=O)(=O)c1ccc(Cl)c(S(N)(=O)=O)c1 (centres unmarked) [Mefruside]"
  recorded result: "Inactive"
- compound: "CC(=O)O[C@]1(C(C)=O)CC[C@H]2[C@@H]3C=C(C)C4=CC(=O)CC[C@]4(C)[C@H]3CC[C@@]21C [Megestrol acetate]"
  recorded result: "Inactive"
- compound: "Cc1cc(C)nc(O)n1.O=C(Nc1ccc([N+](=O)[O-])cc1)Nc1ccc([N+](=O)[O-])cc1 [Nicarbazin]"
  recorded result: "Inactive"
- compound: "Cc1ccc(C(=O)O)cc1[N+](=O)[O-] [4-Methyl-3-nitrobenzoic acid]"
  recorded result: "Inconclusive inhibitor"
- compound: "c1ccc(P(c2ccccc2)c2ccccc2)cc1 [Triphenylphosphine]"
  recorded result: "Inactive"
- compound: "CCCCCCCCCCCC(=O)O.OCCN(CCO)CCO [Triethanolamine Laurate]"
  recorded result: "Inconclusive inhibitor"
- compound: "O=c1[nH]c2ccc([S+]([O-])CCN3CCC(Cc4ccc(F)cc4)CC3)cc2o1 (centres unmarked) [Besonprodil]"
  recorded result: "Inactive"
- compound: "C=C1C[C@H]2[C@@H]3C=C(C)C4=CC(=O)CC[C@]4(C)[C@H]3CC[C@]2(C)[C@@]1(OC(C)=O)C(C)=O [Melengestrol acetate]"
  recorded result: "Inactive"
- compound: "CCS(=O)(=O)c1ccc(OC)c(C(=O)OC)c1 [Methyl 5-(ethylsulfonyl)-o-anisate]"
  recorded result: "Inactive"
- compound: "CC1(C)[C@H](C(=O)OCc2cccc(Oc3ccccc3)c2)[C@@H]1C=C(Cl)Cl [cis-Permethrin in cyclohexane]"
  recorded result: "Inactive"
- compound: "CC(=O)[C@H]1CC[C@H]2[C@@H]3C=CC4=CC(=O)CC[C@@]4(C)[C@@H]3CC[C@]12C [Dydrogesterone]"
  recorded result: "Inactive"
- compound: "CCCCC(CC)C(=O)[O-].CCCCC(CC)C(=O)[O-].[Ba+2] (centres unmarked) [Barium bis(2-ethylhexanoate)]"
  recorded result: "Inactive"
- compound: "Cc1ccc(Cl)c(Nc2ccccc2C(=O)O)c1Cl [Meclofenamate sodium]"
  recorded result: "Inactive"
- compound: "CCC(=O)c1ccc(O)cc1 [Paroxypropione]"
  recorded result: "Inconclusive inhibitor"
- compound: "COC(=O)c1ccccc1C(=O)c1ccc(OCCN2CCCCC2)cc1.Cl [Pitofenone hydrochloride]"
  recorded result: "Inactive"
- compound: "O=C1NC2CCCCN2C12CCN(CCCN1c3ccccc3CCc3ccc(Cl)cc31)CC2 (centres unmarked) [Mosapramine]"
  recorded result: "Inactive"
- compound: "CCC(=O)Oc1ccc(/C(CC)=C(\\CC)c2ccc(OC(=O)CC)cc2)cc1 [Diethylstilbestrol dipropionate]"
  recorded result: "Inactive"
- compound: "CCCCCCCCCCCCCC[N+](C)(C)Cc1ccccc1.O.O.[Cl-]"
  recorded result: "Inactive"
- compound: "N.O=C(O)C(F)(F)C(F)(F)C(F)(F)C(F)(F)C(F)(F)C(F)(F)C(F)(F)F [PFOA, ammonium salt]"
  recorded result: "Inactive"
- compound: "CC(C)(C)c1cccc(O)c1 [3-tert-Butylphenol]"
  recorded result: "Inconclusive inhibitor"
- compound: "CC(=O)O[C@@H]1C[C@H]2[C@@H]3CCc4cc(OC(=O)c5ccccc5)ccc4[C@H]3CC[C@]2(C)[C@H]1OC(C)=O [Estriol benzoate diacetate]"
  recorded result: "Inactive"
- compound: "C[C@]12CCC(=O)C=C1C=C[C@@H]1[C@@H]2CC[C@@]2(C)[C@H]1CC[C@@]21CCC(=O)O1 [Canrenone]"
  recorded result: "Inconclusive inhibitor"
- compound: "CN1CCC(=C2c3ccccc3Sc3ccccc32)CC1 [Pimethixene maleate]"
  recorded result: "Inactive"
- compound: "CC(C)N(C(=O)SCC(Cl)=C(Cl)Cl)C(C)C [Tri-allate]"
  recorded result: "Inconclusive inhibitor"
